Please respond with reported GI50 for every item in the list.
System: DU-145
Assay: Cytotoxicity against human DU145 cells
Format: functional

// recorded GI50 for `CCc1ccc2c(c1)C(=O)c1c-2n(CCCN=[N+]=[N-])c(=O)c2cc(OC)c(OC)cc12` : > 100 µM

// recorded GI50 for `COC(=O)c1ccc2c(c1)C(=O)c1c-2n(CCCCl)c(=O)c2cc(OC)c(OC)cc12` : > 100 µM

// recorded GI50 for `COc1cc2c3c(n(CCCN=[N+]=[N-])c(=O)c2cc1OC)-c1ccc(N(C)C)cc1C3=O` : > 100 µM

// recorded GI50 for `NCCCn1c2c(c3ccc([N+](=O)[O-])cc3c1=O)C(=O)c1cc(I)ccc1-2` : < 0.01 µM

// recorded GI50 for `COC(=O)OCc1ccc2c(c1)C(=O)c1c-2n(CCCBr)c(=O)c2cc([N+](=O)[O-])ccc12` : > 100 µM

// recorded GI50 for `COC(=O)c1ccc2c(c1)C(=O)c1c-2n(CCCN=[N+]=[N-])c(=O)c2cc(OC)c(OC)cc12` : > 100 µM
